Target: T1, 285bZIP V288A (human, UniProt P16220-1 285-339, C300S;C310S;C337S;V288A)
T1 sequence: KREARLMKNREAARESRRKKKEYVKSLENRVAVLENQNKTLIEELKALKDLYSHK
Experiment: stopped-flow fluorescence (koff/kon); 10 mM Mg2+; 10 mM MES pH 6.5, 150 mM NaCl, 10 mM MgCl2, 0.05% Tween-20, 25 C; NMR: 10 mM Tris-d11, 150 mM NaCl, 10 mM MgCl2, 1 mM NaN3, 5% D2O (NOE at 25 C)
Settings: protein: recombinant; tags: extra N-terminal Gly; chain copies: 2; label: 5' Alexa Fluor 488; hairpin (self-annealing, 11 bp stem, CCCC loop)
observed_property: Kd (pM)
Just the number in pM, nothing appended.

// query Name the recorded Kd for CCTGACGTCAGCCCCCTGACGTCAGG (structured_DNA) [AlexaFluor488-CREh] .
// result 460
